Data provenance is ChEMBL document CHEMBL2390834.

system: Ferriprotoporphyrin IX; assay: Binding affinity to ferriprotoporphyrin 9 at pH 7.5 by UV-vis spectrophotometric analysis in presence of 40% DMSO
property: log K

Known log K results, listed for orientation:
CNc1ccnc2cc(C(F)(F)F)ccc12: 4.18
Cc1ccc2c(N)ccnc2c1: 4.17
CCN(CC)CCNc1ccnc2cc(Br)ccc12: 4.99

I. Nc1ccnc2cc(Cl)ccc12
II. CNc1ccnc2cc(C(N)=O)ccc12
From the items above, decide which of I and II has the lower log K reading. Lab log: write the label of the selected item as the result.
II
(II: 3.43, I: 5.01)

----------
tested on: Ferriprotoporphyrin IX; assay: Binding affinity to ferriprotoporphyrin 9 at pH 7.5 by UV-vis spectrophotometric analysis in presence of 40% DMSO
property: log K

COc1ccc2c(N)ccnc2c1: 4.24
N#Cc1ccc2c(NCCN)ccnc2c1: 4.47
NC(=O)c1ccc2c(N)ccnc2c1: 3.76
NCCNc1ccnc2ccccc12: 4.38

----------
system: Ferriprotoporphyrin IX; experiment: Binding affinity to ferriprotoporphyrin 9 at pH 7.5 by UV-vis spectrophotometric analysis in presence of 40% DMSO
property: log K

CCN(CC)CCNc1ccnc2cc(OC)ccc12: 4.83
CNc1ccnc2cc(C)ccc12: 4.01
NCCNc1ccnc2cc(C(F)(F)F)ccc12: 4.7
CCN(CC)CCNc1ccnc2ccccc12: 4.75
Nc1ccnc2cc([N+](=O)[O-])ccc12: 4.57
NCCNc1ccnc2cc([N+](=O)[O-])ccc12: 4.48
N#Cc1ccc2c(N)ccnc2c1: 4.32
CNc1ccnc2ccccc12: 3.92
Nc1ccc2c(N)ccnc2c1: 3.44
CNc1ccnc2cc(N)ccc12: 4.04
COc1ccc2c(NCCN)ccnc2c1: 4.47
CCN(CC)CCNc1ccnc2cc(C)ccc12: 4.86
CCN(CC)CCNc1ccnc2cc(Cl)ccc12: 5.81
Nc1ccnc2ccccc12: 3.83
CNc1ccnc2cc(C#N)ccc12: 4.42
CNc1ccnc2cc([N+](=O)[O-])ccc12: 4.32
CCN(CC)CCNc1ccnc2cc([N+](=O)[O-])ccc12: 4.65
CCN(CC)CCNc1ccnc2cc(F)ccc12: 4.6
CNc1ccnc2cc(Cl)ccc12: 4.62
CCN(CC)CCNc1ccnc2cc(I)ccc12: 5.02
Nc1ccnc2cc(C(F)(F)F)ccc12: 4.41
CNc1ccnc2cc(OC)ccc12: 3.71
NCCNc1ccnc2cc(Cl)ccc12: 5.1
CCN(CC)CCNc1ccnc2cc(N)ccc12: 4.35
Cc1ccc2c(NCCN)ccnc2c1: 4.35
CCN(CC)CCNc1ccnc2cc(C(F)(F)F)ccc12: 4.67
